Hello, the source for this data is PubChem BioAssay, in case you need it.

target: Fibroblast growth factor 2 (Homo sapiens) (UniProt P09038); assay: FGF2 binders on small-molecule microarrays, primary screen, biochemical, small-molecule microarray, 635/667 nm fluorescence (AID 1133); conditions: small-molecule microarray binding, FGF2, fluorescence 635/667; higher = more signal
Sequence (P09038 whole entry, looked up): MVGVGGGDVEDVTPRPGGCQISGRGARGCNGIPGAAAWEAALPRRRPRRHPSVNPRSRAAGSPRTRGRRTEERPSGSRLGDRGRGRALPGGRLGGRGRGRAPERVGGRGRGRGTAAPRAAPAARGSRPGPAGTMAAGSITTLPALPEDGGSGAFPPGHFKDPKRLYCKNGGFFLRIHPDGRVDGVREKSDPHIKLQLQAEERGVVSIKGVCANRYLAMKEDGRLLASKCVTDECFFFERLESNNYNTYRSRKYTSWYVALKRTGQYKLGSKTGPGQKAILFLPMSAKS
Measured composite z-score, listed per entry for reference.

| molecule | composite z-score |
| --- | --- |
| O=C1C2C=CC(C(O)c3ccccc3)N(n3cnnc3)C2C(=O)N1Cc1ccccc1 (configuration not stated) | -0.0128 |
| CCCC=C(CCC)[C@@H](NS(=O)(=O)c1ccc(C(F)(F)F)cc1)c1ccc(-c2ccccc2)cc1 | -0.0729 |
| C=CC[C@]1(C(N)=O)N=C(c2ccc(OCCCO)cc2)O[C@H]1c1ccccc1CN=[N+]=[N-] | -0.373 |
| C=C(COC)C(=O)CC[C@H](OC(=O)c1ccccc1-c1ccccc1C(=O)O)c1cccc(OCCO)c1 | 2.11 |
| CO[C@H]1O[C@H](CO)[C@@H](OC(=O)CCc2ccccc2)[C@@H]2OC(=O)[C@H](Cc3cccc(Br)c3)C/C=C/C[C@@H](Cc3cccc(Br)c3)C(=O)O[C@@H]12 | -0.706 |
| C[C@@H]1NC(=O)[C@H](Cc2ccccc2)NC(=O)[C@@]23C(=O)N[C@@H](Cc4ccccc4)C2[C@H](C)[C@@]2(C)O[C@H]2C3/C=C/C/C=C\CNC1=O (some centres not stated) | 0.0447 |
| CN(C)CCCC[C@@H]1NC(=O)[C@@H]2C[C@H](C(=O)O)[C@H](c3ccc(O)cc3)N2C1=O | 1.35 |

---

// values below are reported composite z-score
tested on: Fibrinogen (Alexa647-labelled); experiment: fibrinogen binders on compound microarrays, profiling panel, artefact control for SMM control-protein annotation, biochemical, small-molecule microarray, 635/667 nm fluorescence (AID 1131); settings: fibrinogen-A647 binding fluorescence, higher = more signal;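 also: z-score merges 667 nm fluorescence with per-spot signal-to-noise over triplicate slides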
property: composite z-score

| given.smiles | measured.value |
| --- | --- |
| CO[C@@H]1COC(=O)[C@@H]2CCCN2C(=O)CC=C[C@@H](C)[C@H](OC)COC(=O)[C@@H]2CCCN2C(=O)CC=C[C@H]1C | -1.15 |
| COC(=O)[C@@]1(Cc2ccc(OC)cc2)[C@H]2c3cc(C(=O)N(C)C)n(CCc4ccc(OC)c(Br)c4)c3C[C@H]2CN1C(=O)c1ccccc1 | 0.891 |
| C=CC[C@@]1(C(=O)N2CCOCC2)N=C(c2ccc(OCCCO)cc2)O[C@@H]1c1ccccc1 | -0.0135 |
| C#CCCCON=C1C[C@@H](O)[C@@H](O)[C@@H]2[C@@H]3C(=O)N(Cc4ccc5c(c4)OCO5)C(=O)[C@@H]3CC[C@@H]12 | 0.903 |

---

assay: basal 3T3-L1 adipocyte mitochondrial potential changes, profiling panel, cell-based, JC-1 fluorescence, 3T3-L1 adipocytes, 24 h, 100 nL compound (AID 1168); conditions: JC-1 mitochondrial fluorescence, higher = more signal, called active from +8 up or from −8 down; also: test concentration not given here

| molecule | z-score |
| --- | --- |
| NC(=O)NCC#Cc1ccc2c(c1)[C@]1(C(=O)N2)[C@H](c2ccccc2OCCO)N2[C@H](c3ccccc3)[C@H](c3ccccc3)OC(=O)[C@H]2[C@@H]1C(=O)N1CCN(c2ncccn2)CC1 | 1.08 |
| CO[C@@H]1COC(=O)CC=C[C@@H](C)[C@H](OC)COC(=O)CC=C[C@H]1C | 0.502 |
| C[C@H]1NC(=O)[C@@H](C)NC(=O)[C@@]23C(=O)N[C@@H](Cc4ccccc4)C2[C@H](C)[C@@]2(C)O[C@H]2C3/C=C/C/C=C\CNC1=O (stereo partly specified) | 0.408 |
| C=C(/C(=C/C[C@@H](OC(=O)c1ccncc1)c1ccc(CO)o1)c1cnc2ccccc2c1)C(C)C | 0.03 |
| CO[C@H]1COC(=O)[C@H](C)COC(=O)[C@H](Cc2ccccc2)NC(=O)CC=C[C@H]1C | 0.854 |
| C=CCNC(=O)[C@H]1[C@@H]2C(=O)O[C@@H](c3ccccc3)[C@@H](c3ccccc3)N2[C@@H](c2ccccc2OCCO)[C@]12C(=O)N(C(=O)OCCOC)c1ccc(C#CCC(C(=O)OC)C(=O)OC)cc12 | 1.54 |

---

assay: S. cerevisiae growth modulation with rapamycin, primary screen, strain BY4716, OD600, 96 h (AID 1091); conditions: higher = more signal, called active from +8 up or from −8 down; also: test concentration not given here
This section presents compounds with their documented z-score values.
property: z-score

| compound | measured.value |
| --- | --- |
| C=CCC(OC(C)=O)[C@@H]1[C@@H](N(Cc2cccc3ccccc23)C(=O)Cc2ccc(F)cc2)c2cc(OCCCO)ccc2N1C(=O)Cc1ccc2ccccc2c1 (some centres undefined) | -0.276 |
| C[N+](C)(C)CCCCNC(=O)[C@@H]1C[C@@H]2C(=O)N3CCC[C@H]3C(=O)N2[C@@H]1c1cccc(OCCO)c1 | -2.42 |
| O=C(NCc1ccccc1)[C@@]1(Cc2ccccc2)COC(c2ccc(OCCCO)cc2)=N1 | 36.4 |
| COc1ccc([Si](C)(C)[C@@H]2[C@@H](CCO)O[C@]3(C(=O)N(Cc4ccc(NC(=O)[C@H](C)O)cc4)c4ccccc43)[C@H]2C)cc1 | 14.8 |
| CN1CCC(CCCO)=CC1C1CC1 (centres undefined) | -0.761 |
| COc1cc2c(cc1OC)CN(C(=O)[C@H]1[C@@H]3C(=O)O[C@@H](c4ccccc4)[C@@H](c4ccccc4)N3[C@@H](c3ccccc3OCCO)[C@]13C(=O)Nc1ccc(C#CC4(O)CCCCCC4)cc13)CC2 | 4.28 |
| COc1cc(CO)cc(I)c1O[C@H]1C=C(C(=O)NCCO)C[C@@H](NCCc2c[nH]c3ccccc23)[C@@H]1O | -2.09 |
| CCOC(=O)C[C@H]1[C@H](OC(=O)Cc2ccc3c(c2)OCO3)[C@@H](NC(=O)CC(C)C)c2cc(OCCCO)ccc2N1C(=O)c1ccccc1 | -0.66 |
| CC[C@@H]1C=C(C(=O)O)[C@H](c2ccccc2)N1S(=O)(=O)c1ccc([N+](=O)[O-])cc1 | 0.632 |
| CO[C@H]1O[C@H](CO)[C@@H](OC(=O)Nc2ccc(Oc3ccccc3)cc2)[C@H](OC(=O)Nc2ccccc2-c2ccccc2)[C@H]1OC(=O)Nc1ccccc1-c1ccccc1 | 0.792 |
| COc1ccc([Si](C)(C)[C@H]2[C@H](CCO)O[C@@]3(C(=O)N(Cc4ccccc4)c4ccc(N5C(=O)c6cccc7cccc5c67)cc43)[C@@H]2C)cc1 | 33 |
| COc1ccc(-c2cc3c(c(-c4ccccc4)n2)[Si](C(C)C)(C(C)C)O[C@H]3c2ccccc2)cn1 | -0.0946 |
| CC(C)N1CC=CC23O[C@@H]4/C=C\CCCOC(=O)C4[C@H]2C(=O)N(CCO)[C@@H]3C1=O (some centres undefined) | -1.77 |
| CC1CC/C=C\[C@H]2OC34C=CCN(Cn5nnc6ccccc65)C(=O)[C@H]3N(C(C)CO)C(=O)[C@@H]4C2C(=O)O1 (some centres undefined) | 0.272 |
| Cc1ccc(N2C(=O)c3ccccc3[C@](C)(C(=O)O)[C@@H]2c2ccc(CO)cc2)nc1 | 0.653 |
| CO[C@H]1COC(=O)CC=C[C@H](C)[C@@H](OC)COC(=O)[C@H](Cc2ccccc2)NC(=O)CC=C[C@@H]1C | 0.725 |
| O=C(NCc1ccccc1)[C@@]1(CCS(=O)(=O)c2ccccc2)COC(c2ccc(OCCCO)cc2)=N1 | 31.5 |
| C=C(C(=O)CC[C@H](OC(=O)c1ccccc1-c1ccccc1C(=O)O)c1ccc(CO)o1)C(C)C | 0.782 |
| CO[C@@H]1COC(=O)CC=C[C@H](C)COC(=O)[C@H](Cc2ccccc2)NC(=O)CC=C[C@H]1C | -1.61 |
| CCC#CCN(Cc1ccccc1Br)[C@H](/C=C/c1ccccc1)[C@@H](O)Cc1ccccc1 | 1.12 |
| C=C[C@H](OC)[C@@H](OC(=O)Nc1ccc(SC)cc1)c1ccc(O)c(F)c1 | 0.887 |
| C=C(CCCC)/C(=C/C[C@H](OC(=O)c1ccncc1)c1cccc(OCCO)c1)c1cc(C(=O)OC)ccc1OC | 2.82 |
| C=CCNC(=O)[C@H]1[C@@H]2C(=O)O[C@@H](c3ccccc3)[C@@H](c3ccccc3)N2[C@@H](c2ccc(O)cc2)[C@]12C(=O)Nc1ccc(C#CCNC(N)=O)cc12 | 0.402 |
| Cc1ccc(N2C(=O)c3ccccc3[C@@H](C(=O)NCC(F)(F)F)[C@@H]2c2ccc(CO)cc2)nc1 | 3.03 |
| CC/C=C/C(=O)N(C[C@@H]1CCCO1)[C@@H]1CC(C(=O)NCCO)=C[C@H](Oc2c(I)cc(CO)cc2OC)[C@H]1O | -1.91 |
| COc1cccc([C@@H]2[C@@H](C)CC[C@H]3C(=O)N(C)[C@@H](C(C)C)C(=O)N23)c1 | 0.369 |
| COc1cc([C@@H]2N[C@H](C(=O)O)Cc3c2[nH]c2ccccc32)cc(OC)c1OC | -0.611 |
| NC(=O)NCC#Cc1ccc2c(c1)[C@]1(C(=O)N2)[C@H](c2ccccc2OCCO)N2[C@H](c3ccccc3)[C@H](c3ccccc3)OC(=O)[C@H]2[C@@H]1C(=O)N1CCN(c2ncccn2)CC1 | 4.25 |
| C=CCc1cccc([C@@H]2[C@@H](C)CC[C@H]3C(=O)N4[C@H](c5cccc(CC=C)c5)[C@@H](C)CC[C@H]4C(=O)N23)c1 | 6.6 |
